Tested on: L1210 leukemia ip in BDF1 mice, survival T/C
Test: NCI In Vivo Anticancer Drug Screen. Data for tumor model L1210 Leukemia (intraperitoneal) in B6D2F1 (BDF1) mice
Study Conditions: endpoint: mean survival time; dose: 6.25 mg/kg/injection; schedule: Q04DX003 (ip); vehicle: saline; higher = longer survival
Method: The antitumor activity of compounds was measured in mice bearing transplantable tumors. Survival or tumor size were measured and the results are expressed as the measurement made in the treated group (T) divided by the measurement made in the vehicle treated control group (C). The tumor model used in this assay is L1210 Leukemia (intraperitoneal) in B6D2F1 (BDF1) mice
Toxic doses and inconclusive results are not listed.
Experimental Endpoint: T/C

What value of T/C has been recorded for this entry: COC1OC(C)C(O)C(O)[CH]1[Hg][O]C(C)=O (stereo not given) 102 % of control

Here is the next compound: c1ccc(C2CN3CCSC3=N2)cc1 (stereo not given) 104 % of control

Here is the next compound: CCCCCCCCCCCCCCCC[N+](C)(C)C 101 % of control

Here is the next compound: Cc1cccc2cc3c(ccc4ccccc43)c[n+]12 93 % of control

Here is the next compound: OCCN1CCN(CC/C=C2/c3ccccc3Sc3ccc(C(F)(F)F)cc32)CC1 101 % of control

* * *

Test system: L1210 leukemia ip in BDF1 mice, survival T/C
Test: NCI In Vivo Anticancer Drug Screen. Data for tumor model L1210 Leukemia (intraperitoneal) in B6D2F1 (BDF1) mice
Study Conditions: endpoint: mean survival time; dose: 100.0 mg/kg/injection; schedule: Q04DX003 (ip); vehicle: saline with Tween-80; higher = longer survival
Experimental: The antitumor activity of compounds was measured in mice bearing transplantable tumors. Survival or tumor size were measured and the results are expressed as the measurement made in the treated group (T) divided by the measurement made in the vehicle treated control group (C). The tumor model used in this assay is L1210 Leukemia (intraperitoneal) in B6D2F1 (BDF1) mice
Toxic doses and inconclusive results are not listed.
Experimental Endpoint: T/C

Please provide the recorded T/C for CN(C)CCC/C=N/Nc1ccc(Cl)cc1[N+](=O)[O-] , tested on L1210 leukemia ip in BDF1 mice, survival T/C. 96 % of control

Here is the next compound: CCCP(=S)(C(C)C)C(C)C 103 % of control

Here is the next compound: COc1ccccc1-n1c(C)nc2c1C(=O)c1ccccc1C2=O 96 % of control

Here is the next compound: COC(=O)c1c(Cl)c(Cl)c(Cl)c(Cl)c1C(=O)OC 100 % of control

Here is the next compound: COc1ccc(C(C(N)=O)N2CCCC2)cc1 (configuration not stated) 102 % of control

Here is the next compound: Cc1ccc(-c2c(O)c(Br)c(-c3ccc(C)cc3C)c(O)c2Br)c(C)c1 98 % of control

Here is the next compound: Nc1ccc(Cl)cc1C(=O)c1ccccn1 100 % of control

Here is the next compound: CSCCNC(=O)NS(=O)(=O)c1ccc(C)cc1 96 % of control

Here is the next compound: CC(C(=O)c1cc(O)c(O)cc1C(O)(C(F)(F)F)C(F)(F)F)C(O)(C(F)(F)F)C(F)(F)F (configuration not stated) 102 % of control

Here is the next compound: Nc1cc(O)cc(O)c1 91 % of control

Here is the next compound: O=S(=O)(/N=C1C=C/C(=N\S(=O)(=O)c2ccccc2)c2ccccc2\1)c1ccccc1 88 % of control

Here is the next compound: C[As](C)Sc1ccnc(S[As](C)C)n1 96 % of control
